Target: acetylcholine receptor
Assay: SPR, AchR on chip, peptide 10 uM
TEST_READOUT: Binding affinity (RU)

{"columns": ["BINDER", "READOUT_UNITS", "RESULT_VALUE"],
 "data": [
  ["KVVYK [5mer-25]", "RU", 60],
  ["RLRLR [5mer-537]", "RU", 59],
  ["RQIYR [5mer-505]", "RU", 71],
  ["RSRTR [5mer-44]", "RU", 59],
  ["KSLSR [5mer-511]", "RU", 56],
  ["KSVSR [5mer-336]", "RU", 83],
  ["RVQSR [5mer-529]", "RU", 84],
  ["KRIRK [5mer-34]", "RU", 82],
  ["KVYYR [5mer-210]", "RU", 67],
  ["KRRCK [5mer-236]", "RU", 81],
  ["RGVRR [5mer-209]", "RU", 78],
  ["KRICR [5mer-347]", "RU", 78]
]}

Where do the numbers come from? From patent US20250011363A1.
